Molecular target: human TLR8 (Homo sapiens (Human), UniProt Q9NR97)
Sequence (Q9NR97 27-1041): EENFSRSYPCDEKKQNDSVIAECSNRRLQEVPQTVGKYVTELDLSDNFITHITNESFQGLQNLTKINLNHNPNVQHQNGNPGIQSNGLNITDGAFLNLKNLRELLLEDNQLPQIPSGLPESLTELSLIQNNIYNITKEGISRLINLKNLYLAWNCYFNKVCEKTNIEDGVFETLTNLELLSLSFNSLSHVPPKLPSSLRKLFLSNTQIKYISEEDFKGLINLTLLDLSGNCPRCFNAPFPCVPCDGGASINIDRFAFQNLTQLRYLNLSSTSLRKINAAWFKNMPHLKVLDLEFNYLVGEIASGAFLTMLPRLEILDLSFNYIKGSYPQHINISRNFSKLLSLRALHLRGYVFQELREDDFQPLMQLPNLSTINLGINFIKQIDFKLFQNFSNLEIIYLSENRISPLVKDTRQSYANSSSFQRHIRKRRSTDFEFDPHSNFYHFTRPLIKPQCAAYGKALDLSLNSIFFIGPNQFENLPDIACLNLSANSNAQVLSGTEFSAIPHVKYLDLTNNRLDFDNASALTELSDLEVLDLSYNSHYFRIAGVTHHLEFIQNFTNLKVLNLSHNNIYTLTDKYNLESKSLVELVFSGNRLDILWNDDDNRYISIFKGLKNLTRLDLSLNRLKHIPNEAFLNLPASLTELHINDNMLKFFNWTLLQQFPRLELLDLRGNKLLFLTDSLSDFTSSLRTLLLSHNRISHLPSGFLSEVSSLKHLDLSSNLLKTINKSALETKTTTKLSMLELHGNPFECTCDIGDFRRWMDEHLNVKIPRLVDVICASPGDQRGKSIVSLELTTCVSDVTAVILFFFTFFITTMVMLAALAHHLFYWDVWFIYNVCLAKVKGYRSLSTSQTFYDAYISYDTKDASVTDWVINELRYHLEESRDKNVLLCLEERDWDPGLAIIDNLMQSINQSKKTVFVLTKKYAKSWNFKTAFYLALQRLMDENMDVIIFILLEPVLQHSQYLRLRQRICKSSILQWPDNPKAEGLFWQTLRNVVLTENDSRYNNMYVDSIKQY
Assay: TLR8 inhibition reporter assay (HEK-Blue SEAP);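 also: SEAP driven by IFN-β minimal promoter carrying NF-κB and AP-1 sites, compounds dosed 0.05 nM to 50 µM for 22 h, inhibition scaled between agonist-plus-DMSO and reference-inhibitor wells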
Settings: read-out: TLR8 IC50; HEK-Blue cells overexpressing human TLR8, SEAP reporter, R848 15.9 μM
pIC50: −log10 of the molar value.
Quick reference: pIC50 of the listed items.

{"Molecule": "Cc1cc(-c2[nH]c3ccc(C4CCN(CC(C)(C)O)CC4)nc3c2C(C)C)cn2ncnc12", "Relation": "=", "pIC50": 9.26}
{"Molecule": "COc1cc(-c2[nH]c3cc(F)c(C4CCN(CC(=O)N(C)C)CC4)nc3c2C(C)C)cn2ncnc12", "Relation": "=", "pIC50": 8.29}
{"Molecule": "Cc1c(-c2[nH]c3ccc(C4CCC(NCC(=O)NC(C)(C)C)CC4)nc3c2C(C)C)cn2ncnc2c1C (stereo not shown) [Example 485]", "Relation": "=", "pIC50": 8.66}
{"Molecule": "Cc1c(-c2[nH]c3ccc(N4CC5(CN(C(=O)CN(C)C)C5)C4)nc3c2C(C)C)cn2ncnc2c1C", "Relation": "=", "pIC50": 8.08}
{"Molecule": "COc1cc(-c2[nH]c3ccc(C4CC(NC5CCOCC5)C4)nc3c2C(C)C)cn2ncnc12 (stereo not shown)", "Relation": "=", "pIC50": 8.66}
{"Molecule": "CNC(=O)CN1CCC(c2ccc3[nH]c(-c4cn5ncnc5c(C)c4C)c(C(C)C)c3n2)CC1", "Relation": "=", "pIC50": 9.09}
{"Molecule": "CNC(=O)CN1CCC(c2ccc3[nH]c(-c4cc(OC)c5ncnn5c4)c(C(C)C)c3n2)CC1", "Relation": "=", "pIC50": 8.39}
{"Molecule": "COc1cc(-c2[nH]c3ccc(C4CNC4)nc3c2C(C)C)cn2ncnc12", "Relation": "=", "pIC50": 7.40}
{"Molecule": "Cc1c(-c2[nH]c3ccc(C4CCC(N(C)CC(=O)N(C)C)CC4)nc3c2C(C)C)cn2ncnc2c1C (stereo not shown) [Example 410]", "Relation": "=", "pIC50": 8.19}
{"Molecule": "Cc1c(-c2[nH]c3ccc(C4CC5(CNC5)C4)nc3c2C(C)C)cn2ncnc2c1C", "Relation": "=", "pIC50": 8.24}
{"Molecule": "Cc1c(-c2[nH]c3ccc(CCC4CN(CC(=O)N(C)C)C4)nc3c2C(C)C)cn2ncnc2c1C", "Relation": "=", "pIC50": 7.44}
{"Molecule": "COc1cc(-c2[nH]c3ccc(C4CC(N(C)CC(=O)N(C)C)C4)nc3c2C(C)C)cn2ncnc12 (stereo not shown)", "Relation": "=", "pIC50": 7.74}
{"Molecule": "COc1cc(-c2[nH]c3ccc(CCC4CN(CC(=O)N(C)C)C4)nc3c2C(C)C)cn2ncnc12", "Relation": "=", "pIC50": 7.38}
{"Molecule": "Cc1c(-c2[nH]c3ccc(C4CCC(N5CC6(COC6)C5)CC4)nc3c2C(C)C)cn2ncnc2c1C (stereo not shown) [Example 435]", "Relation": "=", "pIC50": 8.26}
{"Molecule": "Cc1c(-c2[nH]c3ccc(C4CCC(N5CC6(C5)CS(=O)(=O)C6)CC4)nc3c2C(C)C)cn2ncnc2c1C (stereo not shown)", "Relation": "=", "pIC50": 9.41}
{"Molecule": "Cc1c(-c2[nH]c3ccc(CCC4CN(C5COC5)C4)nc3c2C(C)C)cn2ncnc2c1C [Example 686]", "Relation": "<", "pIC50": 5.51}
